# target_desc: T1, human Galectin-3 (Gal3) (human, UniProt P17931 2-250, limits assumed)
# T1 construct: also called hGal3; hGAL3
# run_description: SPR Biacore T200, antibody captured, Gal3 analyte, 1:1 fit
readout_name: Kd (nM)
Unit nM implied. Number only.

Recorded results for 3 binders are shown here.
9H2.2H10 (antibody, V domains shown) VH: QVQLQQPGAELVGPGSSVKLSCKASGYTFTNYWIHWVKQRPLQGLEWIGNIDPSDSETHYNQKFKDKATLTVDKSSSTAYMQLSSLTSEDSAVYYCARHGYYDYWGQGTTLTVSS VL: DIVMTQSHKFMSTSVGDRVSITCKASQDVSTAVAWYQQKPGQSPKLLIYWASTRHTGVPDRFTGSGSGTDYTLTISSVQAEDLALYYCQQHYTTPLTFGAGTKLELKR : 2.53
24D12.2H9 (antibody, V domains shown) VH: QVQLKQSGPGLVQPSQSLSITCTVSGFSLTSYGVHWVRQAPGKGLEWLGVIWSGGSTDYNAAFMSRLSISKDNSKSQVFFKMNSLQADDTAIYYCAKSPDGYDVAWFGYWGQGTLVTVSA VL: DIVMTQSHKFMSTSVGDRVSITCKASQDVRTAVAWYQQKPGQSPKLLIYWASTRHTGVPDRFTGSGSGTDFTLTLSNVQSEDLADYFCQQYSSYPWTFGGGTKLEIKR : 4.13
13G4.2F8 (antibody, V domains shown) VH: QVQLQQPGAELVKPGASVKLSCKASGYTFTSYWMHWVKQRPGQGLEWIGMIHPNSGSTDYNEKFKNKATLNVDKSSSTAYIQLSSLTSEDSAVYYCTRWGIYYYARDYWGQGTTLTVSS VL: DIVMTQSQKFMSTSVGERVSITCKASQNVGTNVAWYQQKAGQSLELLIYGASNRHTGVPDRFTGSGSGTDFTLTITNVQSEDMTNYFCEQYSNFPLTFGAGTKLELKR : 18.4

Now consider a different binder.
Item 12G5.D7 (antibody, V domains shown) VH: QVQLKQSGAELVRPGASVKLSCKASGYTFTDYYINWVKQRPGQGLEWIARIYPGTGNTDYNEKFKGRATLTAEKSSSTAYMQLSSLTSEDSAVYFCARFAYYYGSGGYFDYWGHGTTLTVSS VL: DILMTQSPSSMSVSLGDTVSITCHASQGINSNMGWLQQKPGKSFKGLIYHATNLEDGVPSRFSGSGSGADYSLTISSLESEDFADYYCVQYAQFPPTFGSGTKLEIK has what recorded Kd? 1.9
